- target-system: Proteinase-activated receptor 2 (Homo sapiens, UniProt P55085)
- Sequence (P55085 whole entry): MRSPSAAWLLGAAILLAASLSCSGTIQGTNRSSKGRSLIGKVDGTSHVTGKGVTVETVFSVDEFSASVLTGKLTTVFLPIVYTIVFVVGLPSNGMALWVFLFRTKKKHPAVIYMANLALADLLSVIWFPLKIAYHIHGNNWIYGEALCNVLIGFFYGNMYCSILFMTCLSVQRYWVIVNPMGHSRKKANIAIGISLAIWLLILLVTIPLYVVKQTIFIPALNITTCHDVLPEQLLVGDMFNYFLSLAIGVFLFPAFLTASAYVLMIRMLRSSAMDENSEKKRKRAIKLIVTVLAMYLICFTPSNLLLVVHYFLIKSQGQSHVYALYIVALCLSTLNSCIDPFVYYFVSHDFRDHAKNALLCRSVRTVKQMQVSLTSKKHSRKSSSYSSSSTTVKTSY
- assay-procedure: Agonist activity at PAR2 expressed in human HT29 cells assessed as intracellular calcium release
Square brackets hold non-standard residues; d marks the D form. Peptide text beside a SMILES is read from it. * marks the point of attachment. Tyr(3,5-(NO2)2) = N[C@@H](Cc1cc([N+](=O)[O-])c(O)c([N+](=O)[O-])c1)C(=O)O; X1 = CC[C@H](C)[C@H](N)C(=O)NC(=O)[C@H](Cc1ccc([N+](=O)[O-])cc1)N*; Phe(4-NO2) = N[C@@H](Cc1ccc([N+](=O)[O-])cc1)C(=O)O; Phe(3-OMe) = COc1cccc(C[C@H](N)C(=O)O)c1; Phe(4-CN) = N#Cc1ccc(C[C@H](N)C(=O)O)cc1; Bta = N[C@@H](Cc1csc2ccccc12)C(=O)O; Cha = N[C@@H](CC1CCCCC1)C(=O)O; 2Furoyl = O=C(c1ccco1)*
Give measured EC50 for each item. Keep answers brief.

Give recorded EC50. CC[C@H](C)[C@H](NC(=O)[C@H](Cc1csc2ccccc12)NC(=O)[C@H](CCCNC(=N)N)NC(=O)CNC(=O)[C@@H](NC(=O)[C@H](CC(C)C)NC(=O)[C@@H](N)CO)[C@@H](C)CC)C(N)=O (H-SLIGR[Bta]I-NH2)
0.3 µM

Give recorded EC50. CC[C@H](C)[C@H](NC(=O)[C@H](Cc1ccc(C#N)cc1)NC(=O)[C@H](CCCNC(=N)N)NC(=O)CNC(=O)[C@@H](NC(=O)[C@H](CC(C)C)NC(=O)[C@@H](N)CO)[C@@H](C)CC)C(N)=O (H-SLIGR[Phe(4-CN)]I-NH2)
0.9 µM

Give recorded EC50. CC[C@H](C)[C@H](NC(=O)[C@H](Cc1ccc([N+](=O)[O-])cc1)NC(=O)[C@H](CCCNC(=N)N)NC(=O)CNC(=O)[C@@H](NC(=O)[C@H](CC(C)C)NC(=O)[C@@H](N)CO)[C@@H](C)CC)C(N)=O (H-SLIGR[Phe(4-NO2)]I-NH2)
0.4 µM

Give recorded EC50. CC[C@H](C)[C@H](NC(=O)[C@H](Cc1ccccc1)NC(=O)[C@H](CCCNC(=N)N)NC(=O)CNC(=O)[C@@H](NC(=O)[C@H](CC(C)C)NC(=O)[C@@H](N)CO)[C@@H](C)CC)C(N)=O (H-SLIGRFI-NH2)
1 µM

Give recorded EC50. CC[C@H](C)[C@H](NC(=O)[C@H](Cc1cc([N+](=O)[O-])c(O)c([N+](=O)[O-])c1)NC(=O)[C@H](CCCNC(=N)N)NC(=O)CNC(=O)[C@@H](NC(=O)[C@H](CC(C)C)NC(=O)[C@@H](N)CO)[C@@H](C)CC)C(N)=O (H-SLIGR[Tyr(3,5-(NO2)2)]I-NH2)
1.4 µM

Give recorded EC50. CC[C@H](C)[C@H](N)C(=O)NC(=O)[C@H](Cc1ccc([N+](=O)[O-])cc1)NC(=O)[C@H](CCCNC(=N)N)NC(=O)CNC(=O)[C@@H](NC(=O)[C@H](CC(C)C)NC(=O)c1ccco1)[C@@H](C)CC (2Furoyl-LIGR-X1)
0.2 µM

Give recorded EC50. CC[C@H](C)[C@H](NC(=O)[C@H](Cc1cccc(OC)c1)NC(=O)[C@H](CCCNC(=N)N)NC(=O)CNC(=O)[C@@H](NC(=O)[C@H](CC(C)C)NC(=O)[C@@H](N)CO)[C@@H](C)CC)C(N)=O (H-SLIGR[Phe(3-OMe)]I-NH2)
3.3 µM

Give recorded EC50. CC[C@H](C)[C@H](NC(=O)[C@H](CC(C)C)NC(=O)[C@@H](N)CO)C(=O)NCC(=O)N[C@@H](CCCNC(=N)N)C(=O)N[C@@H](CC(C)C)C(=O)N[C@@H](CC1CCCCC1)C(N)=O (H-SLIGRL[Cha]-NH2)
3.6 µM

Where do these numbers come from? They come from ChEMBL document CHEMBL1137449.
